experiment: NCI Yeast Anticancer Drug Screen. Data for the sgs1 mgt1 strain (AID 161); conditions: S. cerevisiae sgs1 mgt1 strain, at 50.0 µM (retest, dose inferred, filed as 5.0)
The panel holds about 79,000 compounds, 15% with a hit somewhere; the sample as a whole holds those more often. Calls of active or inactive are those of the source. Rule as the data show it: active = growth inhibition above about 70%; inactive = the rest.
Possible outcomes: active, inactive

compound: CCCCCCCCCCCCCCCCCCOCC(O)COP(=O)(O)OCC1OC(n2cc(F)c(=O)[nH]c2=O)CC1O (stereo not given)
category: active

compound: CCc1ccc(NS(=O)(=O)c2ccccc2)c([N+](=O)[O-])c1
category: inactive

compound: O=C(c1ccc(Cl)cc1)C1OC12C(=O)Nc1ccccc12 (stereo not given)
category: active

compound: CNC(=O)OCc1c(COC(=O)NC)c(-c2ccc(Cl)c(Cl)c2)n2c1CCC2
category: active

compound: CCNc1nnc(CSc2nc(-c3ccccc3)c(-c3ccccc3)[nH]2)s1
category: active

compound: CCCCCCCCCCCCCCCCCCNC
category: active

compound: COC(=O)c1cc(-c2ccc(C)cc2)[nH]c(=O)c1C#N
category: inactive

compound: O=Nc1c(NO)ccc2nn(-c3ccccc3)nc12
category: active

compound: C=C(CN(C)C)C(=O)c1cc(C)ccc1C
category: active

compound: CN=C(N)N/N=C/c1ccc2c(c1)Cc1ccccc1-2
category: active

compound: COc1cc(C2SCC(=O)N2c2ccc(-c3ccc(-n4c(-c5ccccc5)nc5ccccc5c4=O)cc3)cc2)cc(OC)c1OC (stereo not given)
category: inactive

compound: CSC(=S)Nc1cccc(C)n1
category: inactive

compound: CCCN(CCC)CC(O)c1cc(-c2ccc(Cl)cc2)nc2c(C)c(Cl)ccc12 (stereo not given)
category: active

compound: OC1CSCCCSCCSCCCSC1
category: inactive

compound: CCN(CC)CCN1C(=O)c2cccc3cc(OC)cc(c23)C1=O
category: inactive

---

experiment: NCI Yeast Anticancer Drug Screen. Data for the mgt1 strain (AID 153); conditions: S. cerevisiae mgt1 mutant growth inhibition; at 33.0 µM
The panel holds about 79,000 compounds, 15% with a hit somewhere; the sample as a whole holds those more often. Calls of active or inactive are those of the source. Rule as the data show it: active = growth inhibition above about 70%; inactive = the rest.
Possible outcomes: active, inactive

compound: Cc1nc(-c2ccccc2)c(-c2ccccc2)s1
category: active
--
compound: Brc1ccc(-c2cc3c(cc2C2SCCS2)OCO3)cc1
category: inactive
--
compound: CC(C)C1=CCC2C(=C1)CCC1C(C)(C(=O)O)CCCC21C (stereo not given) (tested in a mixture with another compound)
category: inactive
--
compound: O=[N+]([O-])c1ccc([N+]2=NC(c3ccccc3)=NN(c3ccccc3)C2)cc1
category: inactive
--
compound: c1ccc(-c2ccnc3c2ccc2c(-c4ccccc4)ccnc23)cc1
category: active
--
compound: CN(C)c1nc2sc3c(c2c(=O)o1)CCCC3
category: inactive
--
compound: S=C(N/N=C/c1ccccn1)Nc1ccc(Cl)cc1
category: inactive
--
compound: O=[N+]([O-])c1ccc2nc3ccccc3cc2c1
category: inactive
--
compound: O=C(N=Nc1ccccc1Cl)NNc1ccccc1Cl
category: inactive
--
compound: NC(=S)N/N=C\c1nccc2ccccc12
category: active
--
compound: COc1cc2ccc(/C=C\[N+](=O)[O-])cc2cc1OC
category: active
--
compound: NNc1c(F)c(F)cc(F)c1F
category: inactive
--
compound: [N-]=N[N+]#I1OC(C(F)(F)F)(C(F)(F)F)c2ccccc21
category: active
--
compound: CC(=O)[O][Bi]([c]1ccccc1)[c]1ccccc1
category: active
--
compound: Cc1ccc(S(=O)(=O)NC(=O)NC2=NC(C)(C)N(c3ccc(Cl)c(Cl)c3)C(N)=N2)cc1
category: inactive
--
compound: O=C1C2CC[C@@H]3C(=O)C(Cl)(Cl)[C@@H]3CCC2C1(Cl)Cl (stereo not given in full)
category: inactive
--
compound: c1ccc2c(c1)c1ncccc1c1nccnc21
category: inactive
--
compound: O=C(OCCN1CCCCCC1)C(c1ccsc1)C1CCCCC1 (stereo not given)
category: inactive
--
compound: CCC[CH2][Ge]([CH2]CCC)([CH2]CCC)[O]C(=O)C(OC)c1ccccc1 (stereo not given)
category: inactive
--
compound: COc1ccc2sc3cccc(NCCN(C)C)c3c(=O)c2c1
category: inactive

Origin of measurements: PubChem BioAssay (NCI)
